- MEASURED_ON: hAhR (Homo sapiens)
- Construct: Stably integrated DRE-luciferase cell lines were generated by transducing the both cell lines with Cignal XRE luciferase reporter (Qiagen) lentiviral particles; endogenous in cells
- PROTOCOL_DESCRIPTION: AhR DRE-luciferase reporter transcriptional assay, antagonist mode (TCDD-induced)
- Format: cell-based
- TEST_CONTEXT: HEPG2 DRE-Luc cells, 3 nM TCDD, 24 hour incubation, relative IC50
ENDPOINT_NAME: IC50

// worked examples, IC50 included
# COMPOUND, ENDPOINT_NAME, RECORDED_MEASUREMENT
measured = [
    ("Cc1cc(C(F)(F)F)nc2cnc(-c3ccc(NC(=O)c4ccnn4C)c(F)c3)nc12 [Example 163]", "IC50", "< 200 nM"),
    ("Cc1cc(-c2ncc3nc(C(F)(F)F)ccc3n2)ccc1N(C)C(=O)c1ccnn1C [Example 136]", "IC50", "< 200 nM"),
    ("Cc1cc(-c2ccc3cc(F)ccc3n2)ccc1NC(=O)c1cncnc1 [Example 030]", "IC50", "1000 to 10000 nM"),
]

# input for lookup
The compound listed as Cc1cc(-c2ccc3cncc(C)c3c2)ccc1NC(=O)c1ccnn1C [Example 061] shows IC50 equal to 500 to 1000 nM

---

- MEASURED_ON: hAhR (Homo sapiens, UniProt P35869)
- Construct: Stably integrated DRE-luciferase cell lines were generated by transducing the both cell lines with Cignal XRE luciferase reporter (Qiagen) lentiviral particles; endogenous in cells
- Sequence (P35869 11-848): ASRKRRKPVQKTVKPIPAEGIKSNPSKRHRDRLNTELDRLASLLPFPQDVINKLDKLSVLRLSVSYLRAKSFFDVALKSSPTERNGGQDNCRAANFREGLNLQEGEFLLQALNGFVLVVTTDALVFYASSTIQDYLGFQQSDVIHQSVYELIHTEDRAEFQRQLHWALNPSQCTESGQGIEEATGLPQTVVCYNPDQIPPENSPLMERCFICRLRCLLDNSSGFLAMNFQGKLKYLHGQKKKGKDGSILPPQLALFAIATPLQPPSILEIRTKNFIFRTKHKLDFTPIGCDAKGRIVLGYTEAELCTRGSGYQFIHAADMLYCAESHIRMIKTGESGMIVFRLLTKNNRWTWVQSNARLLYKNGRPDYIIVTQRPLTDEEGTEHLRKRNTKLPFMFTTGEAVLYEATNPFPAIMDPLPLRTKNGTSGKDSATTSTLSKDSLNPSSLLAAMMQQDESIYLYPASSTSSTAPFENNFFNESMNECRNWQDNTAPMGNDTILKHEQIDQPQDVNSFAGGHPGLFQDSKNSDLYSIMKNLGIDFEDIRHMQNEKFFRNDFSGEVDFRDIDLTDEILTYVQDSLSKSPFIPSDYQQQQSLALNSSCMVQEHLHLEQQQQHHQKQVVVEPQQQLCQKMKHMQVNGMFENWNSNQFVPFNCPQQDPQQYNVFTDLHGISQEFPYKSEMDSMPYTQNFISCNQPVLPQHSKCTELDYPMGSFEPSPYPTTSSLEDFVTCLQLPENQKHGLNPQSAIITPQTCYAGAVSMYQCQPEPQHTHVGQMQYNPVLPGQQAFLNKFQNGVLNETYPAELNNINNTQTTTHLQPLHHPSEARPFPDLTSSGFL
- PROTOCOL_DESCRIPTION: AhR DRE-luciferase reporter transcriptional assay, antagonist mode (TCDD-induced)
- TEST_CONTEXT: HEPG2 DRE-Luc cells, 3 nM TCDD, 24 hour incubation, relative IC50
ENDPOINT_NAME: IC50

// worked examples, IC50 included
# QUERY_SMILES, MEASURED_ON, IC50
data = [
    ("Cc1cc(-c2ccc3cc(C(N)=O)ccc3n2)ccc1NC(=O)c1ccnn1C", "hAhR (Homo sapiens, UniProt P35869)", "1000 to 10000 nM"),
    ("Cc1cc(-c2ccc3cc(F)ccc3n2)ccc1NC(=O)c1cn(C)cn1", "hAhR (Homo sapiens, UniProt P35869)", "1000 to 10000 nM"),
    ("COc1cccc2ccc(-c3ccc(NC(=O)c4ccnn4C)c(C)c3)nc12", "hAhR (Homo sapiens, UniProt P35869)", "500 to 1000 nM"),
    ("Cc1cc(-c2ccc3cc(C4CC4)ccc3n2)ccc1N(C)C(=O)c1ccnn1C", "hAhR (Homo sapiens, UniProt P35869)", "1000 to 10000 nM"),
    ("Cc1nc(NC(=O)c2ccnn2C)ccc1-c1ccc2cc(F)ccc2n1", "hAhR (Homo sapiens, UniProt P35869)", "1000 to 10000 nM"),
]

# input for lookup
The molecule listed as "Cc1cc(-c2ncc3nc(C(F)(F)F)cc(C)c3n2)ccc1N(C)C(=O)c1ccnn1CC(N)=O" shows IC50 equal to 200 to 500 nM
